Entry source: ChEMBL document CHEMBL6074679

experiment: Cytotoxicity against human MRC5 cells incubated for 48 hrs by MTT assay; format: toxicity, cell-based
measured.parameter: log10 IC50 at 48 h (log10 of the value in µM)
Plainly stated, the numbers are log10 of IC50 at 48 h given in µM.

Example cases with answers are listed next.
[[record]]
compound = "CCOP(=O)(OCC)C(N[C@H](C)c1ccccc1)c1ccc(F)cc1F (stereo not given in full)"
numeric_readout = 1.22

[[record]]
compound = "CCOP(=O)(OCC)C(N[C@H](C)c1ccc(OC)cc1)c1ccc(F)cc1F (stereo not given in full)"
numeric_readout = 0.67

[[record]]
compound = "CCOP(=O)(OCC)C(N[C@@H](C)C(C)(C)C)c1ccc(F)cc1 (stereo not given in full)"
numeric_readout = 1.14


Quick note, log10 IC50 at 48 h for COP(=O)(OC)C(NC(C)C(C)(C)C)c1ccc(F)cc1 (racemic) landed at 1.96

Quick note, log10 IC50 at 48 h for CCOP(=O)(OCC)C(N[C@@H](C)C(C)(C)C)c1ccc(F)cc1F (stereo not given in full) landed at 2.03

Quick note, log10 IC50 at 48 h for COP(=O)(OC)C(N[C@@H](C)C(C)(C)C)c1ccccc1F (stereo not given in full) landed at 1.54

----------
tested on: MDA-MB-231; experiment: Cytotoxicity against human MDA-MB-231 cells incubated for 48 hrs by MTT assay; format: functional, cell-based; settings: MDA-MB-231, 48 h
Examples of molecules with documented pIC50 follow.
Field pIC50 (float): negative decimal logarithm of the concentration in molar.

Example cases with answers are listed next.
[[record]]
molecule = "CCOP(=O)(OCC)C(N[C@H](C)c1ccccc1)c1ccc(F)cc1F (stereo partly specified)"
measured_parameter = "pIC50"
numeric_readout = 4.93

[[record]]
molecule = "COP(=O)(OC)C(N[C@@H](C)C(C)(C)C)c1ccc(F)cc1F (stereo partly specified)"
measured_parameter = "pIC50"
numeric_readout = 3.78

[[record]]
molecule = "CCOP(=O)(OCC)C(N[C@H](C)c1ccc(OC)cc1)c1ccc(F)cc1F (stereo partly specified)"
measured_parameter = "pIC50"
numeric_readout = 3.81

[[record]]
molecule = "COP(=O)(OC)C(N[C@H](C)c1ccccc1)c1ccc(F)cc1F (stereo partly specified)"
measured_parameter = "pIC50"
numeric_readout = 3.77

[[record]]
molecule = "COP(=O)(OC)C(N[C@@H](C)C(C)(C)C)c1ccc(F)cc1 (stereo partly specified)"
measured_parameter = "pIC50"
numeric_readout = 3.72

[[record]]
molecule = "CC(C)OP(=O)(OC(C)C)C(N[C@@H](C)C(C)(C)C)c1ccc(F)cc1F (stereo partly specified)"
measured_parameter = "pIC50"
numeric_readout = 5.00

[[record]]
molecule = "CCOP(=O)(OCC)C(N[C@@H](C)C(C)(C)C)c1ccc(F)cc1F (stereo partly specified)"
measured_parameter = "pIC50"
numeric_readout = 5.25

[[record]]
molecule = "COc1ccc([C@@H](C)NC(c2c(F)c(F)c(F)c(F)c2F)P(=O)(OC)OC)cc1 (stereo partly specified)"
measured_parameter = "pIC50"
numeric_readout = 4.10

[[record]]
molecule = "CCOP(=O)(OCC)C(N[C@@H](C)C(C)(C)C)c1ccc(F)cc1 (stereo partly specified)"
measured_parameter = "pIC50"
numeric_readout = 4.23

[[record]]
molecule = "COc1ccc([C@@H](C)NC(c2ccc(F)cc2F)P(=O)(OC(C)C)OC(C)C)cc1 (stereo partly specified)"
measured_parameter = "pIC50"
numeric_readout = 4.09


// next entry
Quick note, pIC50 for COc1ccc([C@@H](C)NC(c2c(F)cc(F)cc2F)P(=O)(OC)OC)cc1 (stereo partly specified) landed at 4.57

----------
test system: MDA-MB-231; experiment: Cytotoxicity against human MDA-MB-231 cells incubated for 48 hrs by MTT assay; assay type: functional, cell-based; conditions: MDA-MB-231, 48 h
pIC50: −log10 of the molar value.
I would appreciate it if you labelled entries Criterion met when pIC50 is 4 or higher, otherwise Criterion not met.

Threshold query (pIC50 >= 4) on COc1ccc([C@@H](C)NC(c2ccccc2F)P(=O)(OC)OC)cc1 (stereo not given in full)
Criterion not met

Threshold query (pIC50 >= 4) on COP(=O)(OC)C(NC(C)C(C)(C)C)c1ccc(F)cc1 (racemic)
Criterion not met

Threshold query (pIC50 >= 4) on COc1ccc([C@@H](C)NC(c2ccc(F)cc2)P(=O)(OC(C)C)OC(C)C)cc1 (stereo not given in full)
Criterion met

Threshold query (pIC50 >= 4) on COc1ccc([C@@H](C)NC(c2ccc(F)cc2F)P(=O)(OC)OC)cc1 (stereo not given in full)
Criterion met

Threshold query (pIC50 >= 4) on CCOP(=O)(OCC)C(N[C@@H](C)C(C)(C)C)c1c(F)cc(F)cc1F (stereo not given in full)
Criterion met

Threshold query (pIC50 >= 4) on COP(=O)(OC)C(N[C@@H](C)C(C)(C)C)c1ccccc1F (stereo not given in full)
Criterion not met

Threshold query (pIC50 >= 4) on "O=c1[nH]c(=O)n([C@H]2C[C@H](O)[C@@H](CO)O2)cc1F"
Criterion met

Threshold query (pIC50 >= 4) on CCOP(=O)(OCC)C(N[C@H](C)c1ccc(OC)cc1)c1c(F)c(F)c(F)c(F)c1F (stereo not given in full)
Criterion met

----------
target: Urokinase-type plasminogen activator (Homo sapiens)
Examples of compounds with documented pIC50 follow.
Field pIC50 (float): negative decimal logarithm of the concentration in molar.

Example cases with answers are listed next.
[[record]]
compound = "COP(=O)(OC)C(N[C@@H](C)C(C)(C)C)c1c(F)cc(F)cc1F (some centres undefined)"
target_of_assay = "Urokinase-type plasminogen activator (Homo sapiens)"
measured_parameter = "pIC50"
numeric_readout = 3.14

[[record]]
compound = "CCOP(=O)(OCC)C(N[C@@H](C)C(C)(C)C)c1c(F)cc(F)cc1F (some centres undefined)"
target_of_assay = "Urokinase-type plasminogen activator (Homo sapiens)"
measured_parameter = "pIC50"
numeric_readout = 3.17

[[record]]
compound = "COc1ccc([C@@H](C)NC(c2ccc(F)cc2F)P(=O)(OC(C)C)OC(C)C)cc1 (some centres undefined)"
target_of_assay = "Urokinase-type plasminogen activator (Homo sapiens)"
measured_parameter = "pIC50"
numeric_readout = 3.21


// next entry
Entry COP(=O)(OC)C(N[C@@H](C)C(C)(C)C)c1ccc(F)cc1 (some centres undefined) ; assay system Urokinase-type plasminogen activator (Homo sapiens); pIC50 recorded at 3.29

----------
tested on: OVCAR-3; assay: Cytotoxicity against human OVCAR-3 cells incubated for 48 hrs by MTT assay; type: functional, cell-based; conditions: OVCAR-3, 48 h
# if measured IC50 < 60 µM: True  # else: False

[[record]]
compound = "CCOP(=O)(OCC)C(N[C@H](C)c1ccc(OC)cc1)c1ccc(F)cc1F (stereo partly specified)"
class_assignment = "True"

[[record]]
compound = "CCOP(=O)(OCC)C(N[C@@H](C)C(C)(C)C)c1c(F)cc(F)cc1F (stereo partly specified)"
class_assignment = "True"


Quick check: does COP(=O)(OC)C(N[C@@H](C)C(C)(C)C)c1ccc(F)cc1F (stereo partly specified) have IC50 under 60 µM?
False

Quick check: does COc1ccc([C@@H](C)NC(c2ccccc2F)P(=O)(OC)OC)cc1 (stereo partly specified) have IC50 under 60 µM?
True

Quick check: does "O=c1[nH]c(=O)n([C@H]2C[C@H](O)[C@@H](CO)O2)cc1F" have IC50 under 60 µM?
True

Quick check: does COP(=O)(OC)C(N[C@H](C)c1ccccc1)c1ccc(F)cc1F (stereo partly specified) have IC50 under 60 µM?
True

Quick check: does COc1ccc([C@@H](C)NC(c2ccc(F)cc2F)P(=O)(OC(C)C)OC(C)C)cc1 (stereo partly specified) have IC50 under 60 µM?
True

----------
tested on: Caco-2; test: Cytotoxicity against human Caco-2 cells incubated for 48 hrs by MTT assay; format: functional, cell-based; settings: Caco-2, 48 h
# if measured IC50 < 9 µM: label 1  # else: label 0

Solved cases below.
[[record]]
compound = "CC(C)OP(=O)(OC(C)C)C(N[C@@H](C)C(C)(C)C)c1ccc(F)cc1F (stereo not given in full)"
class_assignment = "label 0"

[[record]]
compound = "COc1ccc([C@@H](C)NC(c2ccccc2F)P(=O)(OC)OC)cc1 (stereo not given in full)"
class_assignment = "label 1"

[[record]]
compound = "COc1ccc([C@@H](C)NC(c2ccc(F)cc2F)P(=O)(OC(C)C)OC(C)C)cc1 (stereo not given in full)"
class_assignment = "label 1"

[[record]]
compound = "COP(=O)(OC)C(N[C@@H](C)C(C)(C)C)c1c(F)cc(F)cc1F (stereo not given in full)"
class_assignment = "label 0"


Quick check: does COP(=O)(OC)C(N[C@@H](C)C(C)(C)C)c1ccccc1F (stereo not given in full) have IC50 under 9 µM?
label 1

Quick check: does COP(=O)(OC)C(N[C@@H](C)C(C)(C)C)c1ccc(F)cc1F (stereo not given in full) have IC50 under 9 µM?
label 1

Quick check: does COP(=O)(OC)C(N[C@H](C)c1ccccc1)c1c(F)c(F)c(F)c(F)c1F (stereo not given in full) have IC50 under 9 µM?
label 1

Quick check: does COP(=O)(OC)C(NC(C)C(C)(C)C)c1ccc(F)cc1 (racemic) have IC50 under 9 µM?
label 0
